kinase still bound, per cent of control: recorded values
target: CDK15 (human) (UniProt Q96Q40); assay: KINOMEscan competition binding; details: compound 10.0 µM
Sequence (Q96Q40 whole entry, looked up): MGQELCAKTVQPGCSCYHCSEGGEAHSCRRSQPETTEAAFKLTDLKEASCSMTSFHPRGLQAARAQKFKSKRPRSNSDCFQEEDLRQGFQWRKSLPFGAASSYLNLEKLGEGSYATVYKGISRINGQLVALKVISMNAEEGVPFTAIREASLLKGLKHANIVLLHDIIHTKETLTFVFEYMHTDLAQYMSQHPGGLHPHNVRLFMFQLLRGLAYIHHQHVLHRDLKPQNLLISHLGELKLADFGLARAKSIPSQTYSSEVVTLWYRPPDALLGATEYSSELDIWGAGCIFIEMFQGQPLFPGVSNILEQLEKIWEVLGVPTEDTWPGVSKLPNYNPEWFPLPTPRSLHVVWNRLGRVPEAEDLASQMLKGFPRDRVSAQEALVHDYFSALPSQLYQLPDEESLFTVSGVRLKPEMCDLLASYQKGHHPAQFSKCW
The reply should contain only the number, in %.

SMILES INPUT: N#CCNC(=O)c1ccc(-c2ccnc(Nc3ccc(N4CCOCC4)cc3)n2)cc1
NUMBER: 58

SMILES INPUT: NC(=O)Nc1cc(-c2cccc(F)c2)sc1C(=O)N[C@@H]1CCCNC1
NUMBER: 73

SMILES INPUT: O=C(Nc1cccc(Nc2ncc(Br)c(NCCc3cnc[nH]3)n2)c1)N1CCCC1
NUMBER: 25

COCC(=O)NC/C=C/c1ccc2ncnc(Nc3ccc(Oc4ccc(C)nc4)c(C)c3)c2c1 yielded kinase still bound, per cent of control of 71

Entry COc1cc(C(=O)N2CCC(N3CCN(C)CC3)CC2)ccc1Nc1ncc2c(n1)N(C)c1ccccc1C(=O)N2C ; kinase still bound, per cent of control = 100

Sure, the documented kinase still bound, per cent of control for CCN(CC)CCCCNc1ncc2c(n1)N(C)C(=O)N(c1c(Cl)c(OC)cc(OC)c1Cl)C2 is 100

Entry COc1cc2ncnc(-n3nc(-c4ccccn4)nc3N)c2cc1OC — recorded kinase still bound, per cent of control = 88

For reference, reported kinase still bound, per cent of control for C=CC(=O)Nc1ccc(CN(C(=O)Nc2c(Cl)c(OC)cc(OC)c2Cl)c2cc(Nc3ccc(N4CCN(C)CC4)cc3)ncn2)cc1 stands at 100

Source listed as the kinase profiling compilation of Christmann-Franck et al. (2016).
